Just for reference, ChEMBL document CHEMBL1153370 is where these values come from.

The entries below come with measured Diameter of inhibition zone values attached.
- System: Micrococcus luteus
- protocol details: Antibacterial activity Sarcina lutea ATCC 9341 after 24 hrs at 30 degC by agar diffusion technique
- Format: functional
I only need the number, in mm, no unit after it.

Worked cases, Diameter of inhibition zone given:
smiles | measured number
COC(=O)[C@H]1[C@H](C(=O)OC)[C@H](C(=O)c2ccc(Cl)cc2)N2N=CC=C[C@@H]12 | 54
COC(=O)c1c(C(=O)OC)c2cccnn2c1C(=O)c1ccc(C)cc1 | 65
COC(=O)[C@H]1[C@H](C(=O)OC)[C@H](C(=O)c2ccc(F)cc2)N2N=CC=C[C@@H]12 | 51
CCOC(=O)c1cc(C(=O)c2ccc(Cl)cc2)n2ncccc12 | 48
N#C[C@H]1C[C@@H](C(=O)c2ccc(F)cc2)N2N=CC=C[C@@H]12 | 50

For reference, reported Diameter of inhibition zone for O=C(c1ccc(F)cc1)[C@H]1[C@@H]2C(=O)N(c3ccccc3)C(=O)[C@@H]2[C@@H]2C=CC=NN21 stands at 63

For reference, reported Diameter of inhibition zone for COC(=O)[C@H]1[C@H](C(=O)OC)[C@H](C(=O)c2ccc(C)cc2)N2N=CC=C[C@@H]12 stands at 59

For reference, reported Diameter of inhibition zone for O=C(c1ccc(Cl)cc1)[C@H]1[C@@H]2C(=O)N(c3ccccc3)C(=O)[C@@H]2[C@@H]2C=CC=NN21 stands at 54

For reference, reported Diameter of inhibition zone for O=C(C[n+]1ccccn1)c1ccc(F)cc1.[Br-] stands at 61

For reference, reported Diameter of inhibition zone for O=C(C[n+]1ccccn1)c1ccc(Cl)cc1.[Br-] stands at 57

For reference, reported Diameter of inhibition zone for Cc1ccc(C(=O)C[n+]2ccccn2)cc1.[Br-] stands at 81

For reference, reported Diameter of inhibition zone for Cc1ccc(C(=O)[C@@H]2C[C@H](C#N)[C@@H]3C=CC=NN23)cc1 stands at 67

For reference, reported Diameter of inhibition zone for Cc1ccc(C(=O)[C@H]2[C@@H]3C(=O)N(c4ccccc4)C(=O)[C@@H]3[C@@H]3C=CC=NN32)cc1 stands at 73

For reference, reported Diameter of inhibition zone for CCOC(=O)c1cc(C(=O)c2ccc(F)cc2)n2ncccc12 stands at 48

For reference, reported Diameter of inhibition zone for COC(=O)[C@@H]1[C@H](C(=O)OC)[C@H](C(=O)c2ccc(C)cc2)N2N=CC=C[C@@H]12 stands at 62

For reference, reported Diameter of inhibition zone for COC(=O)c1c(C(=O)OC)c2cccnn2c1C(=O)c1ccc(Cl)cc1 stands at 57

For reference, reported Diameter of inhibition zone for N#C[C@H]1C[C@@H](C(=O)c2ccc(Cl)cc2)N2N=CC=C[C@@H]12 stands at 57

====

- Test system: Candida albicans
- protocol details: Antifungal activity Candida albicans ATCC 10231 after 48 hrs at 28 degC by agar diffusion technique
- Type: functional
The entries below come with measured Diameter of inhibition zone values attached.
I only need the number, in mm, no unit after it.

Worked cases, Diameter of inhibition zone given:
smiles | measured number
O=C(C[n+]1ccccn1)c1ccc(Cl)cc1.[Br-] | 29
O=C(c1ccc(F)cc1)[C@H]1[C@@H]2C(=O)N(c3ccccc3)C(=O)[C@@H]2[C@@H]2C=CC=NN21 | 25
Cc1ccc(C(=O)C[n+]2ccccn2)cc1.[Br-] | 27

For reference, reported Diameter of inhibition zone for COC(=O)c1c(C(=O)OC)c2cccnn2c1C(=O)c1ccc(F)cc1 stands at 21

For reference, reported Diameter of inhibition zone for CCOC(=O)c1cc(C(=O)c2ccc(C)cc2)n2ncccc12 stands at 28

For reference, reported Diameter of inhibition zone for CCOC(=O)c1cc(C(=O)c2ccc(Cl)cc2)n2ncccc12 stands at 30

For reference, reported Diameter of inhibition zone for COC(=O)[C@@H]1[C@H](C(=O)OC)[C@H](C(=O)c2ccc(Cl)cc2)N2N=CC=C[C@@H]12 stands at 25

For reference, reported Diameter of inhibition zone for O=C(C[n+]1ccccn1)c1ccc(F)cc1.[Br-] stands at 19

====

- System: Staphylococcus aureus
- protocol details: Antibacterial activity Staphylococcus aureus ATCC 25923 after 24 hrs at 30 degC by agar diffusion technique
- Assay type: functional
measured endpoint: Diameter of inhibition zone (mm)
I only need the number, in mm, no unit after it.

Worked cases, Diameter of inhibition zone given:
smiles | Diameter of inhibition zone (mm)
O=C(c1ccc(F)cc1)[C@H]1[C@@H]2C(=O)N(c3ccccc3)C(=O)[C@@H]2[C@@H]2C=CC=NN21 | 27
CCOC(=O)c1cc(C(=O)c2ccc(F)cc2)n2ncccc12 | 27
O=C(C[n+]1ccccn1)c1ccc(F)cc1.[Br-] | 38
Cc1ccc(C(=O)[C@H]2[C@@H]3C(=O)N(c4ccccc4)C(=O)[C@@H]3[C@@H]3C=CC=NN32)cc1 | 31
COC(=O)[C@H]1[C@H](C(=O)OC)[C@H](C(=O)c2ccc(F)cc2)N2N=CC=C[C@@H]12 | 29
COC(=O)c1c(C(=O)OC)c2cccnn2c1C(=O)c1ccc(F)cc1 | 27
COC(=O)c1c(C(=O)OC)c2cccnn2c1C(=O)c1ccc(C)cc1 | 46
COC(=O)[C@@H]1[C@H](C(=O)OC)[C@H](C(=O)c2ccc(F)cc2)N2N=CC=C[C@@H]12 | 29
Cc1ccc(C(=O)[C@@H]2C[C@H](C#N)[C@@H]3C=CC=NN23)cc1 | 46
O=C(C[n+]1ccccn1)c1ccc(Cl)cc1.[Br-] | 36

For reference, reported Diameter of inhibition zone for CCOC(=O)c1cc(C(=O)c2ccc(C)cc2)n2ncccc12 stands at 40

For reference, reported Diameter of inhibition zone for N#C[C@H]1C[C@@H](C(=O)c2ccc(F)cc2)N2N=CC=C[C@@H]12 stands at 26

For reference, reported Diameter of inhibition zone for COC(=O)[C@@H]1[C@H](C(=O)OC)[C@H](C(=O)c2ccc(C)cc2)N2N=CC=C[C@@H]12 stands at 41

For reference, reported Diameter of inhibition zone for CCOC(=O)c1cc(C(=O)c2ccc(Cl)cc2)n2ncccc12 stands at 25

For reference, reported Diameter of inhibition zone for O=C(c1ccc(Cl)cc1)[C@H]1[C@@H]2C(=O)N(c3ccccc3)C(=O)[C@@H]2[C@@H]2C=CC=NN21 stands at 28

====

- Tested on: Micrococcus luteus
- protocol details: Antibacterial activity Sarcina lutea ATCC 9341 after 24 hrs at 30 degC by agar diffusion technique
- Assay type: functional
The entries below come with measured Diameter of inhibition zone values attached.
Respond with a number, then the unit of measure.

Worked cases, Diameter of inhibition zone given:
smiles | result
COC(=O)[C@@H]1[C@H](C(=O)OC)[C@H](C(=O)c2ccc(F)cc2)N2N=CC=C[C@@H]12 | 60 mm
COC(=O)c1c(C(=O)OC)c2cccnn2c1C(=O)c1ccc(F)cc1 | 52 mm
CCOC(=O)c1cc(C(=O)c2ccc(C)cc2)n2ncccc12 | 56 mm

Kindly review the next compound as well.
For reference, reported Diameter of inhibition zone for COC(=O)[C@@H]1[C@H](C(=O)OC)[C@H](C(=O)c2ccc(Cl)cc2)N2N=CC=C[C@@H]12 stands at 56 mm

====

- Test system: Candida albicans
- protocol details: Antifungal activity Candida albicans ATCC 10231 after 48 hrs at 28 degC by agar diffusion technique
- Assay type: functional
measured endpoint: Diameter of inhibition zone (mm)
I only need the number, in mm, no unit after it.

smiles | measured endpoint | units of measure | measured number
COC(=O)[C@H]1[C@H](C(=O)OC)[C@H](C(=O)c2ccc(C)cc2)N2N=CC=C[C@@H]12 | Diameter of inhibition zone | mm | 29
Cc1ccc(C(=O)[C@H]2[C@@H]3C(=O)N(c4ccccc4)C(=O)[C@@H]3[C@@H]3C=CC=NN32)cc1 | Diameter of inhibition zone | mm | 29
COC(=O)[C@H]1[C@H](C(=O)OC)[C@H](C(=O)c2ccc(Cl)cc2)N2N=CC=C[C@@H]12 | Diameter of inhibition zone | mm | 27
N#C[C@H]1C[C@@H](C(=O)c2ccc(Cl)cc2)N2N=CC=C[C@@H]12 | Diameter of inhibition zone | mm | 35
N#C[C@H]1C[C@@H](C(=O)c2ccc(F)cc2)N2N=CC=C[C@@H]12 | Diameter of inhibition zone | mm | 23
COC(=O)[C@H]1[C@H](C(=O)OC)[C@H](C(=O)c2ccc(F)cc2)N2N=CC=C[C@@H]12 | Diameter of inhibition zone | mm | 27
COC(=O)c1c(C(=O)OC)c2cccnn2c1C(=O)c1ccc(Cl)cc1 | Diameter of inhibition zone | mm | 24
COC(=O)[C@@H]1[C@H](C(=O)OC)[C@H](C(=O)c2ccc(F)cc2)N2N=CC=C[C@@H]12 | Diameter of inhibition zone | mm | 24
COC(=O)[C@@H]1[C@H](C(=O)OC)[C@H](C(=O)c2ccc(C)cc2)N2N=CC=C[C@@H]12 | Diameter of inhibition zone | mm | 30
O=C(c1ccc(Cl)cc1)[C@H]1[C@@H]2C(=O)N(c3ccccc3)C(=O)[C@@H]2[C@@H]2C=CC=NN21 | Diameter of inhibition zone | mm | 34

For reference, reported Diameter of inhibition zone for COC(=O)c1c(C(=O)OC)c2cccnn2c1C(=O)c1ccc(C)cc1 stands at 29

For reference, reported Diameter of inhibition zone for Cc1ccc(C(=O)[C@@H]2C[C@H](C#N)[C@@H]3C=CC=NN23)cc1 stands at 30

For reference, reported Diameter of inhibition zone for CCOC(=O)c1cc(C(=O)c2ccc(F)cc2)n2ncccc12 stands at 22
